Data provenance: patent US10195156B2

Test: Particle size and polydispersity index of nanoparticle compositions (Zetasizer Nano ZS)
Format: physicochemical
Details: Table 19-1
experimentalReadout: PDI

CCCCCCCCCN(CCCCCCCCC)CCN1CCNCC1: 0.071
CCCCC/C=C\C/C=C\CCCCCCCCN(CCCCCCCC/C=C\C/C=C\CCCCC)CCN1CCNCC1: 0.076
CCCCC/C=C\C/C=C\CCCCCCCCN(CCCCCCCC/C=C\C/C=C\CCCCC)CCN1CCN(CCCCCCCCCCCC)CC1: 0.088
CCCCCCCCCCCCN(CCCCCCCCCCCC)CCN1CCN(Cc2ccc(OC)cc2)CC1: 0.204

I = CCCCCCCCCCCCN(CCCCCCCCCCCC)CCN1CCNCC1
II = CCCCCCCCCCCCN(CCCCCCCCCCCC)CCN1CCN(C)CC1
III = CCCCCC=CCC=CCCCCCCCCC(CCCCCCCCC=CCC=CCCCCC)OC(=O)CCCN(C)C (stereo not shown) [MC3, reference compound]
Ordering: ascending PDI. I would appreciate it if you listed the labels in the requested order.
II, III, I

###

Experiment: Particle size and polydispersity index of nanoparticle compositions (Zetasizer Nano ZS)
Assay type: physicochemical
Settings: Table 21-1
experimentalReadout: PDI

A selection of reference data follows.
CCCCCC=CCC=CCCCCCCCCC(CCCCCCCCC=CCC=CCCCCC)OC(=O)CCCN(C)C (centres unmarked) [MC3, reference compound]: 0.1191
CCCCC/C=C\C/C=C\CCCCCCCCC1(CCCCCCCC/C=C\C/C=C\CCCCC)CC1CN(C)C (centres unmarked): 0.237
CCCCC/C=C\C/C=C\CCCCCCCCC1(CCCCCCCC/C=C\C/C=C\CCCCC)CCC(OC(=O)CCCN(C)C)C1 (centres unmarked): 0.193

a = CCCCC/C=C\C/C=C\CCCCCCCCC1(CCCCCCCC/C=C\C/C=C\CCCCC)CC(OC(=O)CCCN(C)C)C1
b = CCCCC/C=C\C/C=C\CCCCCCCC1C(CCCCCCC/C=C\C/C=C\CCCCC)C1CN(C)C (centres unmarked)
Lab note: record which item had the higher PDI, a or b . Return value: the label identifying the chosen record.
a
(a: 0.200, b: 0.110)

###

Experiment: Lipid clearance: % dose remaining in mouse liver 6 h and 24 h after administration of nanoparticle compositions
Format: in vivo, CD-1 mice
Details: 24 h, CD-1 mice
experimentalReadout: % Dose remaining 24 h CD-1 mice (%)

CCCCCCCCCCCCN(CCCCCCCCCCCC)CCN(CCCCCCCCCCCC)CC(=O)N1CC2CC1CN2C(=O)CN(CCCCCCCCC)CCCCCCCCC (stereo not drawn) [Compound 43]: 64

I = CCCCCC=CCC=CCCCCCCCCC(CCCCCCCCC=CCC=CCCCCC)OC(=O)CCCN(C)C (stereo not drawn) [MC3, reference compound]
II = CCCCCCCCCN(CCCCCCCCC)CCN(CCCCCCCCC)CC(=O)N1CCN(C(=O)CN(CCCCCCCCC)CCCC(=O)OCCCCC)CC1 [Compound 45]
Could you kindly indicate whether I or II has the higher % Dose remaining 24 h CD-1 mice value? Lab log: write the label of the selected item as the result.
I

###

Assay: Particle size and polydispersity index of nanoparticle compositions (Zetasizer Nano ZS)
Assay type: physicochemical
Conditions: Table 17-1
Protocol: A Zetasizer Nano ZS (Malvern Instruments Ltd, Malvern, Worcestershire, UK) can be used to determine the particle size, the polydispersity index (PDI) and the zeta potential of the nanoparticle compositions in 1×PBS in determining particle size and 15 mM PBS in determining zeta potential.
experimentalReadout: Size (nm)

Solved cases (10 shown):
CCCCCCCCCN(CCO)CCCCCCCCC: 165.0
CCCCC/C=C\C/C=C\CCCCCCCCN(CCO)CCCCCCCCCCCCCC: 88.4
CCCCC/C=C\C/C=C\CCCCCCCCN(CCO)CCCCCCCCCCCC: 95.6
CCCCCCCCCCCCCCN(CCO)CCCCCCCCCCCCCC: 68.5
CCCCCCCCCCCCN(CCCCO)CCCCCCCCCCCC: 90.4
CCCCC/C=C\C/C=C\CCCCCCCCN(CCO)CCCCCCCCC: 117.9
CCCCC/C=C\C/C=C\CCCCCCCCN(CCCCCCCC/C=C\C/C=C\CCCCC)CCOC: 87.1
CCCCCCCCCCCCN(CCO)CCCCCCCCCCCC: 87.3
CCCCCC=CCC=CCCCCCCCCC(CCCCCCCCC=CCC=CCCCCC)OC(=O)CCCN(C)C (stereo not shown) [MC3, reference compound]: 83.8
CCCCC/C=C\C/C=C\CCCCCCCCN(CCO)CCCCCCCCCCCCCCCCCC: 80.2

P = CCCCC/C=C\C/C=C\CCCCCCCCN(CCO)CCCCCC
Q = CCCCCCCCCCCCN(CCCO)CCCCCCCCCCCC
Consider entries P and Q . Which has the numerically lower Size (nm)? Answer by stating the label of the chosen item.
Q
(Q: 76.1 nm, P: 136.9 nm)

###

Test system: modified luciferase expression
Assay: Expression of Luc in different organs (liver, lung, spleen, femur) 6 hours after intravenous administration
Type: in vivo
Conditions: Table 20-3, mice, i.v., 0.5 mpk, spleen
Method: The efficacy of the nanoparticle compositions presented in Tables 1, 1a, 17-1, 19-1, 20-1 and 21-1 was further evaluated by measuring the expression of modified luciferase in the liver, lung, spleen, and femur upon administration of a given composition. Formulations were administered intravenously to mice (n=3) at a dosage of 0.5 mpk and bioluminescence measured after 6 hours. The standard MC3 formulation and a PBS control were also tested.
Entries and their Total Flux Spleen
Give a plain numeric answer without units written out.

Observe how each entry below is paired with its result.
CCCCCCCCCCCCN(CCO)CCN(CCCCCCCCC)CCCCCCCCC: 2.36E+06
CCCCCCCCCCCCN(CCCCCCCCCCCC)CCN(CCO)CCCCCCCCC: 9.56E+04
CCCCC/C=C\CCCCCN(CCO)CCN(CCCCCCCCCCCC)CCCCCCCCCCCC: 4.19E+06

Could you now consider this next molecule?
For "CCCCCCCCCCCCN(CCO)CCN(CCCCCCCCCCCC)CCCCCCCCCCCC" the molecule record lists Total Flux Spleen as 1.39E+07

###

Each item that follows carries a reported Total Flux Lung.
Tested on: modified luciferase expression
Assay: Expression of Luc in different organs (liver, lung, spleen, femur) 6 hours after intravenous administration
Format: in vivo
Settings: Table 19-3, mice, i.v., 0.5 mpk, lung
# answer = number (no unit)

I looked up "CCCCC/C=C\C/C=C\CCCCCCCCN(CCCCCCCC/C=C\C/C=C\CCCCC)CCN1CCNCC1" and its Total Flux Lung for modified luciferase expression was 3.00E+04

###

Assay: Encapsulation efficiency of RNA (QUANT-IT RIBOGREEN RNA assay)
Type: physicochemical
Conditions: Table 19-1
experimentalReadout: EE (%)

Field: example entries. Status: answers known.
CCCCCCCCCCCCN(CCCCCCCCCCCC)CCN1CCNCC1 [Compound 19-2]: 98.8
CCCCCC=CCC=CCCCCCCCCC(CCCCCCCCC=CCC=CCCCCC)OC(=O)CCCN(C)C (stereo not shown) [MC3, reference compound]: 97.6
CCCCC/C=C\C/C=C\CCCCCCCCN(CCCCCCCC/C=C\C/C=C\CCCCC)CCN1CCNCC1 [Compound 19-3]: 99.7
CCCCCCCCCCCCN(CCCCCCCCCCCC)CCN1CCN(Cc2ccc(OC)cc2)CC1 [Compound 19-5]: 93.6
CCCCCCCCCCCCN(CCCCCCCCCCCC)CCN1CCN(C)CC1 [Compound 19-4]: 95.2

a = CCCCCCCCCN(CCCCCCCCC)CCN1CCNCC1 [Compound 19-1]
b = CCCCC/C=C\C/C=C\CCCCCCCCN(CCCCCCCC/C=C\C/C=C\CCCCC)CCN1CCN(CCCCCCCCCCCC)CC1 [Compound 19-6]
Parameter metric = EE (%). Return the lower-valued option from a and b . Provide the label of your selected option as the answer.
b

###

Experiment: pKa of nanoparticle compositions
Type: physicochemical
Details: Table 20-1; rows without footnote mark
experimentalReadout: pKa

CCCCCCCCCCCCN(CCO)CCN(CCCCCCCCCCCC)CCCCCCCCCCCC: 6.41
CCCCCCCCCCCCCCN(CCO)CCN(CCCCCCCCCCCC)CCCCCCCCCCCC: 6.06
CCCCCCCCCCCCN(CCCCCCCCCCCC)CCN(CCO)CCCCCC(=O)OCCCCC: 6.82
CCCCCCCCCCCCN(CCCCCCCCCCCC)CCN(CCO)CCCCCCCC(=O)OC(CCCCCCCC)CCCCCCCC: 6.22

###

Test: Encapsulation efficiency of RNA (QUANT-IT RIBOGREEN RNA assay)
Assay type: physicochemical
Details: Table 21-1
experimentalReadout: EE (%)

CCCCC/C=C\C/C=C\CCCCCCCCC1(CCCCCCCC/C=C\C/C=C\CCCCC)CCC(OC(=O)CCCN(C)C)C1 (centres unmarked): 98.8
CCCCC/C=C\C/C=C\CCCCCCCC1C(CCCCCCC/C=C\C/C=C\CCCCC)C1CN(C)C (centres unmarked): 98.9
CCCCC/C=C\C/C=C\CCCCCCCCC1(CCCCCCCC/C=C\C/C=C\CCCCC)CC1CN(C)C (centres unmarked): 98.4
CCCCC/C=C\C/C=C\CCCCCCCCC1(CCCCCCCC/C=C\C/C=C\CCCCC)CC(OC(=O)CCCN(C)C)C1: 99.4
CCCCCC=CCC=CCCCCCCCCC(CCCCCCCCC=CCC=CCCCCC)OC(=O)CCCN(C)C (centres unmarked) [MC3, reference compound]: 98.1
